Reference source for all entries: the SangsterLogP compilation

measuredMetric: logP
Reply briefly: the number, and no unit.

Sample records with logP:
>  <substanceSmiles>
CCCCCCCOc1cccc(NC(=O)OCCN(C)C)c1

>  <obsValue>
2.43

$$$$
>  <substanceSmiles>
CCCCOc1ccc(NC(=O)OCCN(C)C)cc1

>  <obsValue>
1.77

$$$$

Lookup: Identify logP associated with the compound COc1ccc(NC(=O)OCCN(C)C)cc1
Found: 0.97

Lookup: Identify logP associated with the compound CCCCCCCCCOc1ccccc1NC(=O)OCCN(C)C
Found: 3.35

Lookup: Identify logP associated with the compound CCCCOc1cccc(NC(=O)OCCN(C)C)c1
Found: 1.35

Lookup: Identify logP associated with the compound CCCOc1ccc(NC(=O)OCCN(C)C)cc1
Found: 1.41

Lookup: Identify logP associated with the compound CCCCCCOc1ccc(NC(=O)OCCN(C)C)cc1
Found: 2.47

Lookup: Identify logP associated with the compound CCCCCOc1ccccc1NC(=O)OCCN(C)C
Found: 1.83

Lookup: Identify logP associated with the compound CCCCCCCCOc1ccccc1NC(=O)OCCN(C)C
Found: 2.98

Lookup: Identify logP associated with the compound CCCCCCCCOc1ccc(NC(=O)OCCN(C)C)cc1
Found: 3.26

Lookup: Identify logP associated with the compound CCCCCCCCCCOc1ccccc1NC(=O)OCCN(C)C
Found: 3.82

Lookup: Identify logP associated with the compound CCCCCOc1cccc(NC(=O)OCCN(C)C)c1
Found: 1.72

Lookup: Identify logP associated with the compound CCCCCCCCOc1cccc(NC(=O)OCCN(C)C)c1
Found: 2.87

Lookup: Identify logP associated with the compound COc1ccccc1NC(=O)OCCN(C)C
Found: 1.15

###

Flag rule - logP less than 2 flags true (1); the remaining entries get false (0).

As a guide, the following entries are already answered.
>  <substanceSmiles>
CCCCCCCOc1ccc(NC(=O)OCCN(C)C)cc1

>  <classAssignment>
false (0)

$$$$
>  <substanceSmiles>
CCCCCCCCCCOc1ccc(NC(=O)OCCN(C)C)cc1

>  <classAssignment>
false (0)

$$$$
>  <substanceSmiles>
CCOc1ccc(NC(=O)OCCN(C)C)cc1

>  <classAssignment>
true (1)

$$$$

Lookup: I'd appreciate it if you could check whether CCCCOc1ccccc1NC(=O)OCCN(C)C has logP smaller than 2.
Found: true (1)

Lookup: I'd appreciate it if you could check whether CCCCCOc1ccc(NC(=O)OCCN(C)C)cc1 has logP smaller than 2.
Found: false (0)

Lookup: I'd appreciate it if you could check whether CCOc1cccc(NC(=O)OCCN(C)C)c1 has logP smaller than 2.
Found: true (1)

Lookup: I'd appreciate it if you could check whether CCCOc1cccc(NC(=O)OCCN(C)C)c1 has logP smaller than 2.
Found: true (1)

Lookup: I'd appreciate it if you could check whether CCCCCCCOc1ccccc1NC(=O)OCCN(C)C has logP smaller than 2.
Found: false (0)

Lookup: I'd appreciate it if you could check whether CCCCCCOc1ccccc1NC(=O)OCCN(C)C has logP smaller than 2.
Found: false (0)

Lookup: I'd appreciate it if you could check whether CCOc1ccccc1NC(=O)OCCN(C)C has logP smaller than 2.
Found: true (1)

Lookup: I'd appreciate it if you could check whether CCCOc1ccccc1NC(=O)OCCN(C)C has logP smaller than 2.
Found: true (1)

Lookup: I'd appreciate it if you could check whether CCCCCCCCCOc1cccc(NC(=O)OCCN(C)C)c1 has logP smaller than 2.
Found: false (0)
